system: Staphylococcus aureus; assay: Antibacterial activity against methicillin-resistant Staphylococcus aureus ATCC 700699 after 24 hrs by spectrophotometric analysis; type: functional, organism-based; conditions: Staphylococcus aureus, ATCC 700699, 24 h
Entries and their MIC
Please state the figure in µg/mL; there is no need to write the unit.

- compound: "O=C(O)c1cn(Cc2ccc(C(F)(F)F)cc2)c2cc(N3CCN(C(c4ccco4)c4nnnn4C4CCCCC4)CC3)c(F)cc2c1=O (centres undefined)"
  target-of-assay: "Staphylococcus aureus"
  MIC / µg/mL: 50
- compound: "CCn1cc(C(=O)O)c(=O)c2cc(F)c(N3CCN(C(c4cccc5ccccc45)c4nnnn4C(C)(C)C)CC3)cc21 (centres undefined)"
  target-of-assay: "Staphylococcus aureus"
  MIC / µg/mL: 4.9
- compound: "CC(C)c1ccc(C(c2nnnn2C2CCCCC2)N2CCN(c3cc4c(cc3F)c(=O)c(C(=O)O)cn4Cc3ccc(C(F)(F)F)cc3)CC2)cc1 (centres undefined)"
  target-of-assay: "Staphylococcus aureus"
  MIC / µg/mL: 50

Staphylococcus aureus MIC of CCn1cc(C(=O)O)c(=O)c2cc(F)c(N3CCN(C(c4ccccc4)c4nnnn4C4CCCCC4)CC3)cc21 (centres undefined) is 11.6
